test system: COLO 205; experiment: NCI tumour cell line growth inhibition, 48 h
Active and inactive are the calls of the source. No stated cut-off is given here; in the data, active = GI50 up to about 1.1 µM and inactive = higher.
endpoint.label: GI50

Illustrative cases are given below, each with its answer.
Please report the recorded GI50 for O=c1[nH]c(=S)[nH]c2c(C3OC(CO)C(O)C3O)nsc12 (centres undefined) . > 100 µM (inactive)

So what does the record say about GI50 for O=c1sc2ccccc2n1CC1CS1 (centres undefined) ? > 100 µM (inactive)

Any idea what GI50 was measured for CC(OCc1ccccc1)C(NC(=O)C1CSSCC(NC(=O)C(Cc2ccccc2)NC(=O)OCc2ccccc2)C(=O)NC(Cc2ccccc2)C(=O)NC(Cc2cn(C=O)c3ccccc23)C(=O)NC(CCCCNC(=O)OCc2ccccc2)C(=O)NC(C(C)OCc2ccccc2)C(=O)N1)C(N)=O (centres undefined) ? 3.03 µM (inactive)

Okay, next one:
Give the measured GI50 of C=C1C(=O)CC2C(=O)C(C)(O)CC/C=C(\C)C(=O)CC12 (centres undefined) . 9.84 µM (inactive)

---

system: IGROV-1; test: NCI tumour cell line growth inhibition, 48 h
Active and inactive are the calls of the source. Rule as the data show it: active = GI50 up to about 1.1 µM and inactive = higher.
# GI50 per entry

Below, 2 compounds whose answers are already recorded.
Looking for the measured GI50 of COC(CNC(=O)C(C)NC(=O)CCc1ccccc1)OC (centres undefined) , can you help? > 100 µM (inactive)

Data request, read-out GI50, for "Clc1ccc(Nc2ncco2)cc1Cl" > 10 µM (inactive)

Continuing:
Quick one: GI50 of "Ic1ccc2c(c1)N(c1ccccc1)c1cc([N-]c3ccc4nc5ccc(I)cc5[n+](-c5ccccc5)c4c3)ccc1N2" ? 43.8 µM (inactive)

Query (compound): CC1=C(/C=C/C(C)=C/C=C/C(C)=C/C=C/C=C(C)/C=C/C=C(C)/C=C/C2=C(C)C(=O)C(O)CC2(C)C)C(C)(C)CC(O)C1=O (centres undefined) ; field requested: GI50 > 100 µM (inactive)

// returns reported GI50 for input C=C(c1nc2ccc(Cl)cc2[nH]c1=O)C(O)c1ccc(C(O)C(=O)c2nc3ccc(Cl)cc3[nH]c2=O)cc1 (centres undefined) > 68.2 µM (inactive)

---

tested on: BT-549; test: NCI tumour cell line growth inhibition, 48 h
Active and inactive are the calls of the source. No stated cut-off is given here; in the data, active = GI50 up to about 1.1 µM and inactive = higher.
Each record here notes measured GI50.

Which GI50 is listed for "CCOc1ccc(/N=N/S(=O)(=O)O)cc1" ? > 100 µM (inactive)

Please look up its GI50: CC(C)OC(=O)C(NC(=O)C(CC(=O)OCc1ccccc1)NC(=O)OCc1ccccc1)NC(=O)C1C(C)(C)CCC1(C)C (stereo not given) 17.4 µM (inactive)

Returns the measured GI50 for the input molecule. Input: CC1=C(C)C(=O)OC(C(C)(O)C2(O)CCC3(O)C4CC(Cl)C5(O)C(O)C=CC(=O)C5(C)C4CCC32C)C1 (stereo not given) 46.3 µM (inactive)

Request the reported GI50 associated with Clc1cc2nc(C3CCCCO3)[nH]c2cc1Cl (stereo not given) 11.1 µM (inactive)

Now look at this entry.
Which GI50 reading was recorded for the molecule "O=c1oc2ccccc2cc1-c1nc2ccc([N+](=O)[O-])cc2o1" ? > 100 µM (inactive)

---

test system: CAKI-1; experiment: NCI tumour cell line growth inhibition, 48 h
Activity calls are given as the source filed them. Cut-off read from the data, not from the text of the source: active = GI50 up to about 1.1 µM and inactive = higher.
endpoint.label: GI50

Kindly state the measured GI50 obtained for CCC(/C(=N/NC(=O)C[N+](C)(C)C)c1ccccc1)C1OC(=O)c2ccccc21 (stereo unspecified) with CAKI-1. > 100 µM (inactive)

Find the measured GI50: item "CCCCSC1=N/C(=C\c2ccccc2O)C(=O)N1" , target or system CAKI-1. > 100 µM (inactive)

Under CAKI-1: GI50 value of "NNC(=O)Nc1cccnc1" ? > 100 µM (inactive)

Next:
Hello, I am looking for reported GI50 with CAKI-1 for "COc1nc2c(c(=O)n1C)N[C@H]1[C@H](OC(C)=O)[C@@H](OC(C)=O)CO[C@H]1N2" . Could you help? > 100 µM (inactive)

What value of GI50 on CAKI-1 does Cc1cccc(N2C(=O)C3c4[nH]c5ccccc5c4C4CCC(C(C)(C)C)CC4C3C2=O)c1 (stereo unspecified) have? 13.1 µM (inactive)

What measured GI50 is associated with COc1ccc(N2NC(c3ccccc3)(c3ccccc3)C(C)C2=O)cc1 (stereo unspecified) on CAKI-1? 54.2 µM (inactive)

---

tested on: 786-0; test: NCI tumour cell line growth inhibition, 48 h
The source made the active and inactive calls. Cut-off read from the data, not from the text of the source: active = GI50 up to about 1.1 µM and inactive = higher.
Each item that follows carries a reported GI50.

Record excerpt, results attached:
Which measured GI50 belongs to "COc1ccc(OC(=O)N2C/C(=C\c3ccccc3)C(=O)/C(=C/c3ccccc3)C2)cc1" , tested on 786-0? 2.96 µM (inactive)

Give recorded GI50 with 786-0 for the following molecule: CC(=O)OC(/C=C1/C=CC(=O)O1)COC(=O)c1ccccc1 (stereo unspecified) > 31.2 µM (inactive)

Field: GI50 (786-0). Entry: "N=C(N)N/N=C/c1c(Cl)nc2n1CCS2" 49.4 µM (inactive)

786-0 / GI50 / CC1CC(C#N)=C2NCCCCN2C1=O (stereo unspecified) : value? > 100 µM (inactive)

Requested read-out GI50, target or system 786-0, entry CC12CCC(C(=O)n3c1nc1ccccc13)C(C)(C)O2 (stereo unspecified) > 100 µM (inactive)

Others:
Give GI50 (786-0) of the following molecule: "CCOC(=O)/C(=C/c1ccc(Cl)cc1)N(CC)CC" > 100 µM (inactive)

---

test system: HT-29; test: NCI tumour cell line growth inhibition, 48 h
Active and inactive are the calls of the source. Cut-off read from the data, not from the text of the source: active = GI50 up to about 1.1 µM and inactive = higher.
Response enum: active, inactive

Status in this test for "COC(=O)CN1c2nc(C#N)c(C#N)nc2N(CC(=O)OC)c2nc(C#N)c(C#N)nc21" ? inactive

Tell me the recorded outcome of this test for "COc1nc2c(c(=O)n1C)N[C@H]1[C@H](OC(C)=O)[C@@H](OC(C)=O)CO[C@H]1N2" . inactive

Next:
Lab log entry: "COc1ccc2nc3ccccc3c(NCCN(C)CCCl)c2c1" — outcome as called in the assay? active

Could you check what this test reported for "COc1ccc(/C=C2\c3cc(OC)c(OC)cc3CCN2C(=O)c2ccccc2)cc1OC" ? inactive

So what was the verdict on "COC(=O)c1ccccc1/C=C1\Cc2c(ccc3c2CCC3)C1=O" in this test? inactive

---

tested on: SK-MEL-5; experiment: NCI tumour cell line growth inhibition, 48 h
Calls of active or inactive are those of the source. Rule as the data show it: active = GI50 up to about 1.1 µM and inactive = higher.
Please answer using one outcome listed in active, inactive

Could you kindly confirm the outcome this assay logged for "O=C(c1ccccc1)C1(Br)S(=O)(=O)OCCOS1(=O)=O" ? inactive

How did this test come out for "C[n+]1cccc2c(=O)c3ccccc3oc21" ? inactive

What is the recorded call for this compound in the test? "COC(=O)CCc1ccc2c(c1)CC1(C2)Cc2ccc(CCC(=O)OC)cc2C1" inactive

Answer briefly: the call reported for CC(C)[S+]1C2=C(CC(C)(C)CC2=O)[N-]c2ccccc21 (stereo not drawn) in this assay. inactive

Answer briefly: the call reported for "Ic1ccc2c(c1)N(c1ccccc1)c1cc([N-]c3ccc4nc5ccc(I)cc5[n+](-c5ccccc5)c4c3)ccc1N2" in this assay. inactive

Write down the call the test reported for this compound. Item: "OC(NN=C1CCCC1)(C(F)(F)Cl)C(F)(F)Cl" inactive

How did this test come out for "COc1cc(/C=C/C(=O)O)ccc1OS(=O)(=O)O" ? inactive

# lookup: test call for "CN(C)C(=S)/N=c1\ssc(=S)n1Cc1ccncc1" inactive

What classification did "C[C@@]12CCC(=O)c3coc(c31)C(=O)c1cc3c(cc12)C(=O)C=CC3=O" end up with in this test? inactive

Test call, this compound: CCCC/C=C/C=C/C=C/CCCCCCCC(=O)OCC(COC(=O)CCCCCCC/C=C/C1C=CC(CCCC)C(C(=O)O)C1C(=O)O)OC(=O)CCCCCCC/C=C/C=C/C=C/CCCC.OCCNCO (stereo not drawn) inactive

Others:
Look up the recorded call for "CCN(CC)C(=S)SS(=O)(=O)c1ccc(Cl)cc1" in this test. inactive

Write down the call the test reported for this compound. Item: "CCOc1ccc(/N=N/S(=O)(=O)O)cc1" inactive

Assay result, entry O=c1[nH]c(=S)[nH]c2c(C3OC(CO)C(O)C3O)nsc12 (stereo not drawn) — outcome? inactive

---

system: EKVX; assay: NCI tumour cell line growth inhibition, 48 h
The source made the active and inactive calls. Cut-off read from the data, not from the text of the source: active = GI50 up to about 1.1 µM and inactive = higher.
Write down one outcome, taken from active, inactive

As a guide, the following entries are already answered.
What outcome does the record of this test show for "COc1cc(/C=C/c2ccc(OC)c(O)c2)cc(OC)c1" ? inactive

Hi, do you know how "O=C1c2[nH]c3ccc(Br)cc3c2CCN1Cc1ccc(Cl)cc1" came out in this test? inactive

Could you please tell me the result logged for "CSCCCNC(=O)c1csc(-c2csc(CCNC(=O)CNC(=O)CNC(=O)OC(C)(C)C)n2)n1" in this assay? inactive

Kindly provide the recorded test outcome for the following compound: "CC(=O)CC(=O)N1CCOC1=O" inactive

Just curious, what result did CC#CC(O)(C(=O)OC1CCC2CCC1N2C)C1CCCC1 (stereo not given) get here? inactive

Which outcome did this test record for the compound "CCn1cc(C(=O)O)c(=O)c2ccc(C)nc21" ? inactive

Assay outcome for "Oc1cc(-c2cccc(OC(F)(F)F)c2)nc2ccc(N3CCCC3)cc12" : what was it? active

// outcome(item) with item = CC1=CCC[C@H]2[C@](C)(CC3=CC(=O)C4SCCSC4C3=O)[C@@H](C)CC[C@]12C (stereo not given in full) inactive

Continuing:
Would you mind telling me which call this test gave "COc1c(-c2nc3ccc(N4CCN(C)CC4)nc3[nH]2)cc(OC)c2c1nc(COC(C)=O)n2C" ? inactive

How did this test come out for "CN1CCN(c2c(Cl)cc(Cl)c3[nH]c4ccccc4c(=O)c23)CC1" ? inactive

Data provenance: ChEMBL document CHEMBL1201862
